Measured pIC50, listed per entry for reference.
- Tested on: Wt-BaF3
- test-summary: Parental Ba/F3 cell proliferation (CellTiter Glo)
- Assay type: cell-based, murine
- particulars: Mus musculus, parental BaF/3 cells, 48 hours
pIC50: −log10 of the molar value.

molecule-smiles	pIC50
Cc1ccc(NC(=O)c2cccc(C(F)(F)F)c2)cc1N1Cc2cnc(N[C@H](C)CO)nc2N(C)C1	4.61
Cc1ccc(NC(=O)c2cccc(C(F)(F)F)c2)cc1N1Cc2cnc(NC3CC3)nc2N(C)C1	4.95
Cc1ccc(Nc2ncc3c(n2)N(C)CN(c2cc(NC(=O)c4cccc(C(F)(F)F)c4)ccc2C)C3)cn1	5.27
Cc1ccc(NC(=O)c2cccc(C(F)(F)F)c2)cc1N1Cc2cnc(NC3CCN(C)CC3)nc2N(C)C1	5.05

###

- Tested on: Wt-BaF3
- test-summary: Parental Ba/F3 cell proliferation (CellTiter Glo)
- Type: cell-based, murine
- particulars: Mus musculus, parental BaF/3 cells, 48 hours

molecule-smiles	qualifier-symbol	IC50 [µM]
Cc1ccc(NC(=O)c2cccc(C(F)(F)F)c2)cc1N1Cc2cnc(Nc3ccc(N4CCN(C)CC4)nc3)nc2N(C)C1	=	3.67
Cc1ccc(Nc2ncc3c(n2)N(C)CN(c2cc(C(=O)NCCO)ccc2C)C3)cn1	>	10
Cc1ccc(Nc2ncc3c(n2)N(C)CN(c2cc(C(=O)NCCN4CCOCC4)ccc2C)C3)cn1	>	10
Cc1ccc(NC(=O)c2cccc(C(F)(F)F)c2)cc1N1Cc2cnc(NCCN(C)C)nc2N(C)C1	=	4.54
Cc1ccc(NC(=O)c2cccc(C(F)(F)F)c2)cc1N1Cc2cnc(Nc3ccc(N4CCC(O)CC4)nc3)nc2N(C)C1	=	2.34
CONC(=O)c1ccc(C)c(N2Cc3cnc(Nc4ccc(C)nc4)nc3N(C)C2)c1	>	10
Cc1ccc(Nc2ncc3c(n2)N(C2CC2)CN(c2cc(NC(=O)c4cccc(C(F)(F)F)c4)ccc2C)C3)cn1	=	6.03
Cc1ccc(NC(=O)c2cccc(C(F)(F)F)c2)cc1N1Cc2cnc(NCCc3c[nH]cn3)nc2N(C)C1	=	5.14

###

- tested-system: BaF3-TEL-TIE1 (Homo sapiens, UniProt P35590)
- Construct: fused on or other part: P41212 (Transcription factor ETV6)
- Sequence (P35590 whole entry, change not shown, the tested form may be a part): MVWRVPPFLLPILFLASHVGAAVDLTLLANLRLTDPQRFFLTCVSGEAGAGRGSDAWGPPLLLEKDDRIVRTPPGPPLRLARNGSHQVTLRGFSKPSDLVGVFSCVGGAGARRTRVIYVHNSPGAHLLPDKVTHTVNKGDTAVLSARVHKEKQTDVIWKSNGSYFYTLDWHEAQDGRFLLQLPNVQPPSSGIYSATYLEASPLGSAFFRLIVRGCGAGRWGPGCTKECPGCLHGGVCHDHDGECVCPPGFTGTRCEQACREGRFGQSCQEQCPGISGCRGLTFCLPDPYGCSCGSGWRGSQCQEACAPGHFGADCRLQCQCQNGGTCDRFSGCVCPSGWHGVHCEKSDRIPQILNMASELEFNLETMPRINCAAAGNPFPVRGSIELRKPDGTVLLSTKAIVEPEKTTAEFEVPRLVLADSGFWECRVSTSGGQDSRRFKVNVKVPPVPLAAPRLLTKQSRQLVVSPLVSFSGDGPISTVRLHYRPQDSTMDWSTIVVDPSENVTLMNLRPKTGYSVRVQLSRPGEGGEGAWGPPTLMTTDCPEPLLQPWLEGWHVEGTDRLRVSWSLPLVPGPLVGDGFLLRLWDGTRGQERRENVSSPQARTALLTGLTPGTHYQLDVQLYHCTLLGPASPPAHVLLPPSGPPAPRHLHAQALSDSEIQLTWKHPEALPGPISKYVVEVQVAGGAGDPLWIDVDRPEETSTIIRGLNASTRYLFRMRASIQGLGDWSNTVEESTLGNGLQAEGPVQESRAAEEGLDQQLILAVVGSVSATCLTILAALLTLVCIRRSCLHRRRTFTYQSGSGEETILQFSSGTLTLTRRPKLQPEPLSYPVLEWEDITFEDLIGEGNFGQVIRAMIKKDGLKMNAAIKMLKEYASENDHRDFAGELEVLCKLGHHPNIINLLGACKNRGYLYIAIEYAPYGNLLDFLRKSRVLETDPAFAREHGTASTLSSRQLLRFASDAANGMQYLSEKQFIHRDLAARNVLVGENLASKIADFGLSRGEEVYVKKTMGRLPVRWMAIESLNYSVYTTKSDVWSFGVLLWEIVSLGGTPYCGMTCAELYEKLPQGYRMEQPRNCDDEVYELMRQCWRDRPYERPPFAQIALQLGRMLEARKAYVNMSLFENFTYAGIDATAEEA
- test-summary: Antiproliferative activity, kinase-dependent Ba/F3 cells (MTT/MTS)
- Format: cell-based, murine
- particulars: 48 hours, cell viability, read-out: tel-TIE1 IC50

molecule-smiles	GI50
Cc1ccc(NC(=O)c2cccc(C(F)(F)F)c2)cc1N1Cc2cnc(N[C@@H](C)CO)nc2N(C)C1	3.65 µM
Cc1ccc(Nc2ncc3c(n2)N(C)CN(c2cc(C(=O)NCCO)ccc2C)C3)cn1	> 10 µM
COc1ccc(NC(=O)c2cccc(C(F)(F)F)c2)cc1N1Cc2cnc(Nc3ccc(C)nc3)nc2N(C)C1	5.18 µM
Cc1ccc(NC(=O)c2cccc(C(F)(F)F)c2)cc1N1Cc2cnc(Nc3ccc(N4CCC(O)CC4)nc3)nc2N(C)C1	0.289 µM
Cc1ccc(Nc2ncc3c(n2)N(C)CN(c2cc(C(=O)NCCN4CCOCC4)ccc2C)C3)cn1	> 10 µM
Cc1ccc(NC(=O)c2cccc(C(F)(F)F)c2)cc1N1Cc2cnc(NC3CC3)nc2N(C)C1	4.97 µM
Cc1ccc(NC(=O)c2cccc(C(F)(F)F)c2)cc1N1Cc2cnc(NC3CCN(C)CC3)nc2N(C)C1	1.75 µM
CCN(CC)c1ccc(Nc2ncc3c(n2)N(C)CN(c2cc(NC(=O)c4cccc(C(F)(F)F)c4)ccc2C)C3)cn1	1.35 µM
CONC(=O)c1ccc(C)c(N2Cc3cnc(Nc4ccc(C)nc4)nc3N(C)C2)c1	> 10 µM
CN1CN(c2ccc(Cl)c(C(F)(F)F)c2)Cc2cnc(Nc3ccc(N4CCOCC4)nc3)nc21	> 10 µM
Cc1ccc(NC(=O)c2cccc(C(F)(F)F)c2)cc1N1Cc2cnc(NCCc3c[nH]cn3)nc2N(C)C1	3.7 µM
Cc1cc(Nc2ncc3c(n2)N(C)CN(c2cc(NC(=O)c4cccc(C(F)(F)F)c4)ccc2C)C3)n(C)n1	0.736 µM
Cc1ccc(C(F)(F)F)cc1N1Cc2cnc(Nc3ccc(N4CCOCC4)nc3)nc2N(C)C1	4.43 µM
CN1CN(c2ccc(F)c(Cl)c2)Cc2cnc(Nc3ccc(N4CCOCC4)nc3)nc21	11.8 µM
CN1CN(c2ccc(Br)cc2F)Cc2cnc(Nc3ccc(N4CCOCC4)nc3)nc21	4.55 µM
CNc1ncc2c(n1)N(C)CN(c1cc(NC(=O)c3cccc(C(F)(F)F)c3)ccc1C)C2	5.47 µM
COc1cc(C(=O)N2CCN(C)CC2)ccc1Nc1ncc2c(n1)N(C)CN(c1cc(NC(=O)c3cccc(C(F)(F)F)c3)ccc1C)C2	1.58 µM
CN1CN(c2cccc(C(F)(F)F)c2)Cc2cnc(Nc3ccc(N4CCOCC4)nc3)nc21	6.17 µM
Cc1ccc(NC(=O)c2cccc(C(F)(F)F)c2)cc1N1Cc2cnc(Nc3ccc(N4CCOCC4)nc3)nc2N(C)C1	0.355 µM
Cc1ccc(Nc2ncc3c(n2)N(C)CN(c2cc(C(=O)Nc4cccc(C(F)(F)F)c4)ccc2C)C3)cn1	0.0912 µM
Cc1ccc(Nc2ncc3c(n2)N(C)CN(c2cc(NC(=O)c4cccc(C(F)(F)F)c4)ccc2Cl)C3)cn1	6.85 µM
Cc1ccc(Nc2ncc3c(n2)N(c2ccccc2)CN(c2cc(NC(=O)c4cccc(C(F)(F)F)c4)ccc2C)C3)cn1	3.68 µM
Cc1ccc(Nc2ncc3c(n2)N(C)CN(c2cc(NC(=O)c4cccc(C(F)(F)F)c4)ccc2C)C3)cn1	0.519 µM
Cc1ccc(Nc2ncc3c(n2)N(C2CCCC2)CN(c2cc(NC(=O)c4cccc(C(F)(F)F)c4)ccc2C)C3)cn1	3.82 µM
Cc1ccc(Nc2ncc3c(n2)N(C)CN(c2cccc(NC(=O)c4cccc(C(F)(F)F)c4)c2)C3)cn1	9.29 µM
Cc1ccc(NC(=O)c2cccc(C(F)(F)F)c2)cc1N1Cc2cnc(Nc3cnn(C)c3)nc2N(C)C1	2.32 µM
Cc1ccc(NC(=O)c2cccc(C(F)(F)F)c2)cc1N1Cc2cnc(NCCN(C)C)nc2N(C)C1	1.59 µM
Cc1ccc(N)cc1N1Cc2cnc(Nc3ccc(N4CCOCC4)nc3)nc2N(C)C1	0.809 µM

###

- tested-system: BaF3-TEL-HCK (Homo sapiens)
- Construct: fused on or other part: P41212 (Transcription factor ETV6)
- Sequence (P08631 whole entry, change not shown, the tested form may be a part): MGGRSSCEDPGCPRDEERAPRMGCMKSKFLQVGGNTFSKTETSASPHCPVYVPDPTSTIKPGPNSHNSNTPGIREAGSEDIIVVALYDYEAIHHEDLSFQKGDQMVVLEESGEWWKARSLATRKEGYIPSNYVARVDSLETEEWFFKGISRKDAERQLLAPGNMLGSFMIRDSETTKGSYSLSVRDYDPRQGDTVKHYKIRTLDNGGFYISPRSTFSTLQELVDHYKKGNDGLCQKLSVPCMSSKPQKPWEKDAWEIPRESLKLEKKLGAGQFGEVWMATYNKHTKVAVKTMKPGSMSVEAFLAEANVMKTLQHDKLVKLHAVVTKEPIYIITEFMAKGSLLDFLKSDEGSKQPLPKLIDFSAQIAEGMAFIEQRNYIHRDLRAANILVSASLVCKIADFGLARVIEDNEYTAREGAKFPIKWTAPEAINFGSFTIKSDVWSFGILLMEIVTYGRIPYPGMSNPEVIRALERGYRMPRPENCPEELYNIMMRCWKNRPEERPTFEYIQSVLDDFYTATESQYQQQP
- test-summary: Antiproliferative activity, kinase-dependent Ba/F3 cells (MTT/MTS)
- Format: cell-based, murine
- particulars: 48 hours, cell viability, read-out: Tel-HCK IC50
- Description: Following up on the kinome data, the ability of compounds disclosed in the present invention to inhibit proliferation of cells that are dependent on selected protein kinases was tested. […] The background control wells to which media with no cells added and the vehicle control wells were included on each plate in triplicate. Cell viability was determined using MTT (Sigma, St. Louis, Mo., USA) and MTS (Promega, Madison, Wis., USA), according to the manufacturer's instructions. […]
Reported GI50 values for a set of molecules

molecule	GI50
Cc1ccc(NC(=O)c2cccc(C(F)(F)F)c2)cc1N1Cc2cnc(Nc3ccc(N4CCC(O)CC4)nc3)nc2N(C)C1 [IA-13]	192 nM
Cc1ccc(NC(=O)c2cccc(C(F)(F)F)c2)cc1N1Cc2cnc(NCCN(C)C)nc2N(C)C1 [IA-2]	2560 nM
Cc1ccc(Nc2ncc3c(n2)N(C2CCCC2)CN(c2cc(NC(=O)c4cccc(C(F)(F)F)c4)ccc2C)C3)cn1 [IB-3]	3150 nM
Cc1ccc(Nc2ncc3c(n2)N(c2ccccc2)CN(c2cc(NC(=O)c4cccc(C(F)(F)F)c4)ccc2C)C3)cn1 [IB-4]	4610 nM
Cc1ccc(NC(=O)c2cccc(C(F)(F)F)c2)cc1N1Cc2cnc(Nc3cnn(C)c3)nc2N(C)C1 [IA-10]	1770 nM

###

- tested-system: BaF3-TEL-LYN (Homo sapiens, UniProt P07948)
- Construct: fused on or other part: P41212 (Transcription factor ETV6)
- Sequence (P07948 whole entry, change not shown, the tested form may be a part): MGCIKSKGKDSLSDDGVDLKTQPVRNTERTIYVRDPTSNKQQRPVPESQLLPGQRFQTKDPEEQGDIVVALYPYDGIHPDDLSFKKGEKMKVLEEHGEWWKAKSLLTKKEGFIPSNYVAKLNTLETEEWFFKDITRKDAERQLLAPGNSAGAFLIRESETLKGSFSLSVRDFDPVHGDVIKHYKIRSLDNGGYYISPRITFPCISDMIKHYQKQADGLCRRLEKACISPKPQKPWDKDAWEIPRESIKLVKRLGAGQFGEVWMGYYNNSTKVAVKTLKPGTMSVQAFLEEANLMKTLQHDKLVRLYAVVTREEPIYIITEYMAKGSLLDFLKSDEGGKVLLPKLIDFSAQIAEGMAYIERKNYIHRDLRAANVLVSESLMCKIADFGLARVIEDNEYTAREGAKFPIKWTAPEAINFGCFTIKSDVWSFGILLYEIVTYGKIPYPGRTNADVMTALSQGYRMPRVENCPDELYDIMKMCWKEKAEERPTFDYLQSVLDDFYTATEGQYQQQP
- test-summary: Antiproliferative activity, kinase-dependent Ba/F3 cells (MTT/MTS)
- Type: cell-based, murine
- particulars: 48 hours, cell viability, read-out: tel-LYN IC50
- Protocol: Following up on the kinome data, the ability of compounds disclosed in the present invention to inhibit proliferation of cells that are dependent on selected protein kinases was tested. […] The background control wells to which media with no cells added and the vehicle control wells were included on each plate in triplicate. Cell viability was determined using MTT (Sigma, St. Louis, Mo., USA) and MTS (Promega, Madison, Wis., USA), according to the manufacturer's instructions. […]
Quick rule for you: GI50 under 2 µM gets yes (1), anything else gets no (0).

molecule-smiles	assigned-label
CN1CN(c2ccc(Br)cc2F)Cc2cnc(Nc3ccc(N4CCOCC4)nc3)nc21	no (0)
Cc1ccc(NC(=O)c2cccc(C(F)(F)F)c2)cc1N1Cc2cnc(Nc3ccc(N4CCC(O)CC4)nc3)nc2N(C)C1	yes (1)
CN1CN(c2ccc(F)c(Cl)c2)Cc2cnc(Nc3ccc(N4CCOCC4)nc3)nc21	no (0)
CN1CN(c2cccc(C(F)(F)F)c2)Cc2cnc(Nc3ccc(N4CCOCC4)nc3)nc21	no (0)
Cc1ccc(NC(=O)c2cccc(C(F)(F)F)c2)cc1N1Cc2cnc(Nc3cnn(C)c3)nc2N(C)C1	yes (1)
Cc1ccc(NC(=O)c2cccc(C(F)(F)F)c2)cc1N1Cc2cnc(NCCN3CCOCC3)nc2N(C)C1	no (0)
CCN(CC)c1ccc(Nc2ncc3c(n2)N(C)CN(c2cc(NC(=O)c4cccc(C(F)(F)F)c4)ccc2C)C3)cn1	yes (1)
